We begin with a simple list: items and their reported net action potential response.
Tested on: myrcene A-neuron OSN class
Assay: net action potential response of A-neuron (blank-subtracted) (spikes/s (Hz)); higher = stronger excitation
Conditions: 10 µg on filter paper; neuron: A neuron (large spike amplitude)
measure: net action potential response

[[record]]
molecule = "CC(C)CCO"
measure = "net action potential response"
value_observed = -2

[[record]]
molecule = "C=C1CCC2CC1C2(C)C (stereo not drawn) [(-)-β-Pinene]"
measure = "net action potential response"
value_observed = 18

[[record]]
molecule = "C=Cc1ccccc1"
measure = "net action potential response"
value_observed = -2

[[record]]
molecule = "C=C1[C@@H]2CC[C@@H](C2)C1(C)C (racemic) [(±)-Camphene]"
measure = "net action potential response"
value_observed = 0

[[record]]
molecule = "CC1=CCC2C(C1)C2(C)C (single isomer, unassigned; (+)) [(+)-3-Carene]"
measure = "net action potential response"
value_observed = 12

[[record]]
molecule = "C=Cc1ccc(OC)cc1"
measure = "net action potential response"
value_observed = -2


###

Tested on: lanierone-responsive B-neuron OSN class (ItypOR36)
Experiment: net action potential response of lanierone B-neuron (blank-subtracted) (spikes/s (Hz)); higher = stronger excitation
Conditions: co-localized A-neuron class: (4S)-cis-verbenol; 10 µg on filter paper; neuron: B neuron (small spike amplitude)
Label rule met for high-side net action potential response (at or above -0.7) and rule not met for low-side net action potential response (below it).

[[record]]
compound = "C=C1CCC2CC1C2(C)C (stereo not drawn) [(-)-β-Pinene]"
group_label = "rule met"

[[record]]
compound = "C[C@]12CCC[C@](C)(OC1)O2 (racemic) [(±)-Frontalin]"
group_label = "rule not met"

[[record]]
compound = "CC(=O)OC/C=C(\\C)CCC=C(C)C [Geranyl acetate]"
group_label = "rule not met"

[[record]]
compound = "C=Cc1ccc(OC)cc1 [4-Vinyl anisole]"
group_label = "rule met"

[[record]]
compound = "OCCc1ccccc1 [2-Phenylethanol]"
group_label = "rule not met"


###

Tested on: lanierone-responsive B-neuron OSN class (ItypOR36)
Assay: net action potential response of lanierone B-neuron (blank-subtracted) (spikes/s (Hz)); higher = stronger excitation
Settings: co-localized A-neuron class: (+)-isopinocamphone; 10 µg on filter paper; neuron: B neuron (small spike amplitude)
net action potential response below -2 gives no; net action potential response at or above it gives yes.

[[record]]
compound = "CC(=O)OCCC(C)C [3-Methylbutyl acetate]"
assay_system = "lanierone-responsive B-neuron OSN class (ItypOR36)"
group_label = "yes"

[[record]]
compound = "CC1=CC(=O)[C@@H]2C[C@H]1C2(C)C [(-)-Verbenone]"
assay_system = "lanierone-responsive B-neuron OSN class (ItypOR36)"
group_label = "no"

[[record]]
compound = "C[C@@H]1C(=O)C[C@H]2C[C@@H]1C2(C)C [(+)-Isopinocamphone]"
assay_system = "lanierone-responsive B-neuron OSN class (ItypOR36)"
group_label = "no"

[[record]]
compound = "CCCCCC(O)CC (racemic) [(±)-3-Octanol]"
assay_system = "lanierone-responsive B-neuron OSN class (ItypOR36)"
group_label = "no"

[[record]]
compound = "CC1=CCC(=C(C)C)CC1"
assay_system = "lanierone-responsive B-neuron OSN class (ItypOR36)"
group_label = "no"

[[record]]
compound = "C=Cc1ccc(OC)cc1"
assay_system = "lanierone-responsive B-neuron OSN class (ItypOR36)"
group_label = "yes"

[[record]]
compound = "CCC/C=C/C=O [(E)-hex-2-enal]"
assay_system = "lanierone-responsive B-neuron OSN class (ItypOR36)"
group_label = "no"

[[record]]
compound = "C=C(C)[C@@H]1CC=C(C)CC1 [(-)-Limonene]"
assay_system = "lanierone-responsive B-neuron OSN class (ItypOR36)"
group_label = "yes"

[[record]]
compound = "CCc1ccc(O)c(OC)c1"
assay_system = "lanierone-responsive B-neuron OSN class (ItypOR36)"
group_label = "yes"

[[record]]
compound = "CC1(C)C2CC=C(CO)C1C2 (racemic) [(±)-Myrtenol]"
assay_system = "lanierone-responsive B-neuron OSN class (ItypOR36)"
group_label = "yes"

[[record]]
compound = "CC1=CC(C)(C)C=C(O)C1=O"
assay_system = "lanierone-responsive B-neuron OSN class (ItypOR36)"
group_label = "yes"

[[record]]
compound = "C=Cc1ccccc1"
assay_system = "lanierone-responsive B-neuron OSN class (ItypOR36)"
group_label = "no"

[[record]]
compound = "C=C1[C@@H]2CC[C@@H](C2)C1(C)C (racemic) [(±)-Camphene]"
assay_system = "lanierone-responsive B-neuron OSN class (ItypOR36)"
group_label = "no"

[[record]]
compound = "C=C1CCC2CC1C2(C)C (stereo not drawn) [(-)-β-Pinene]"
assay_system = "lanierone-responsive B-neuron OSN class (ItypOR36)"
group_label = "no"

[[record]]
compound = "CC12CCC(CC1)C(C)(C)O2"
assay_system = "lanierone-responsive B-neuron OSN class (ItypOR36)"
group_label = "yes"

[[record]]
compound = "OCCc1ccccc1"
assay_system = "lanierone-responsive B-neuron OSN class (ItypOR36)"
group_label = "yes"

[[record]]
compound = "C=C(C)C1CC=C(C)C(=O)C1 (racemic) [(±)-Carvone]"
assay_system = "lanierone-responsive B-neuron OSN class (ItypOR36)"
group_label = "yes"

[[record]]
compound = "CC(C)CCO"
assay_system = "lanierone-responsive B-neuron OSN class (ItypOR36)"
group_label = "yes"

[[record]]
compound = "CC(C)[C@@]12CC[C@@](C)(O)[C@@H]1C2 [(+)-trans-4-Thujanol]"
assay_system = "lanierone-responsive B-neuron OSN class (ItypOR36)"
group_label = "yes"

[[record]]
compound = "C=CC(=C)C[C@@H](O)CC(C)C (racemic) [(±)-Ipsenol]"
assay_system = "lanierone-responsive B-neuron OSN class (ItypOR36)"
group_label = "yes"

[[record]]
compound = "CC(=O)CC/C=C(\\C)CCC=C(C)C"
assay_system = "lanierone-responsive B-neuron OSN class (ItypOR36)"
group_label = "yes"

[[record]]
compound = "COc1ccccc1"
assay_system = "lanierone-responsive B-neuron OSN class (ItypOR36)"
group_label = "no"

[[record]]
compound = "C=CC(C)(C)O"
assay_system = "lanierone-responsive B-neuron OSN class (ItypOR36)"
group_label = "yes"

[[record]]
compound = "CC(=O)OCc1ccccc1 [Benzyl acetate]"
assay_system = "lanierone-responsive B-neuron OSN class (ItypOR36)"
group_label = "yes"

[[record]]
compound = "C=CC(=C)CCC=C(C)C"
assay_system = "lanierone-responsive B-neuron OSN class (ItypOR36)"
group_label = "yes"

[[record]]
compound = "CC1=CCC2CC1C2(C)C (stereo not drawn) [(+)-α-Pinene]"
assay_system = "lanierone-responsive B-neuron OSN class (ItypOR36)"
group_label = "yes"

[[record]]
compound = "CCCCCC=O"
assay_system = "lanierone-responsive B-neuron OSN class (ItypOR36)"
group_label = "yes"

[[record]]
compound = "C=CCc1ccc(OC)c(OC)c1"
assay_system = "lanierone-responsive B-neuron OSN class (ItypOR36)"
group_label = "yes"


###

System: (+)-trans-4-thujanol A-neuron OSN class
Assay: net action potential response of A-neuron (blank-subtracted) (spikes/s (Hz)); higher = stronger excitation
Details: 10 µg on filter paper; neuron: A neuron (large spike amplitude)
Hi all, reminder that labels come from net action potential response, split as bucket A: < 1; bucket B: ≥ 1 and < 3; bucket C: ≥ 3

[[record]]
molecule = "CC/C=C/CCO"
group_label = "bucket C"

[[record]]
molecule = "C=CC(=C)C[C@@H](O)CC(C)C (racemic) [(±)-Ipsenol]"
group_label = "bucket B"

[[record]]
molecule = "CCCCCC=O [Hexanal]"
group_label = "bucket A"

[[record]]
molecule = "CC1=CCC(=C(C)C)CC1 [Terpinolene]"
group_label = "bucket A"

[[record]]
molecule = "COc1ccc(C)cc1 [4-Methyl anisole]"
group_label = "bucket C"

[[record]]
molecule = "CC1=CCC2C(C1)C2(C)C (single isomer, unassigned; (+)) [(+)-3-Carene]"
group_label = "bucket C"

[[record]]
molecule = "CC(=O)OC/C=C(\\C)CCC=C(C)C [Geranyl acetate]"
group_label = "bucket A"

[[record]]
molecule = "CC(=O)OCCC(C)C [3-Methylbutyl acetate]"
group_label = "bucket C"

[[record]]
molecule = "Cc1ccc(C(C)C)cc1 [p-Cymene]"
group_label = "bucket A"

[[record]]
molecule = "CC(C)CCO [3-Methyl-1-butanol]"
group_label = "bucket C"

[[record]]
molecule = "CC(=O)c1ccccc1 [Acetophenone]"
group_label = "bucket B"

[[record]]
molecule = "CC1=CCC2CC1C2(C)C (stereo not drawn) [(-)-α-Pinene]"
group_label = "bucket A"

[[record]]
molecule = "CC1=CC(C)(C)C=C(O)C1=O [Lanierone]"
group_label = "bucket A"

[[record]]
molecule = "C=CC(=C)CC(O)C=C(C)C (racemic) [(±)-Ipsdienol]"
group_label = "bucket A"

[[record]]
molecule = "COc1ccc(C)cc1OC [3,4-Dimethoxytoluene]"
group_label = "bucket B"

[[record]]
molecule = "CC1=CCC(C(C)C)=CC1 [γ-Terpinene]"
group_label = "bucket A"

[[record]]
molecule = "CC(=O)OCCc1ccccc1 [2-Phenethyl acetate]"
group_label = "bucket B"

[[record]]
molecule = "C[C@@H]1C(=O)C[C@H]2C[C@@H]1C2(C)C [(+)-Isopinocamphone]"
group_label = "bucket A"

[[record]]
molecule = "C=Cc1ccc(OC)cc1 [4-Vinyl anisole]"
group_label = "bucket B"

[[record]]
molecule = "CCCCCC(O)CC (racemic) [(±)-3-Octanol]"
group_label = "bucket C"

[[record]]
molecule = "C=CC(C)(C)O [2-Methyl-3-buten-2-ol]"
group_label = "bucket C"

[[record]]
molecule = "C=C1CCC2(C(C)C)CC12 (racemic) [(±)-Sabinene]"
group_label = "bucket C"

[[record]]
molecule = "CC(C)[C@@]12CC[C@@](C)(O)[C@@H]1C2 [(+)-trans-4-Thujanol]"
group_label = "bucket C"

[[record]]
molecule = "CCC1CCC2(CCCO2)O1 (racemic) [(±)-Chalcogran]"
group_label = "bucket C"

[[record]]
molecule = "OCCc1ccccc1 [2-Phenylethanol]"
group_label = "bucket C"


Origin of the recorded values: the supplement of paper PMC11577813
